B1: VH:VL chains; a variant is named by its letters at X, in order (parent)
chain 1: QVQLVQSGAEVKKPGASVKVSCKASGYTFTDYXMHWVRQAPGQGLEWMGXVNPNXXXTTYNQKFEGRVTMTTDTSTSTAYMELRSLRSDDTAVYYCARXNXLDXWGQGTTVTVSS
chain 2: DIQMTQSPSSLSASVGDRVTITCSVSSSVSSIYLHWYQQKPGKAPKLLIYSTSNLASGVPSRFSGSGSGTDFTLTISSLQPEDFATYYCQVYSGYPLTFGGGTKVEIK

Variants of: B1
ASSAY DETAILS: yeast display scFab, FACS + sequencing
TEST CONTEXT: with MET
This is one part of the list. No count for the full screen is at hand.
ASSAY READOUT: antigen binding call

1. VEAGDDWV
no binding
2. YEKETAGV
no binding
3. VREEGDGA
no binding
4. YRAKGSAD
binds
5. FKGRGFVV
no binding

Okay, here is my list. What is antigen binding call for each of these?
1. DAGGASSA
2. YAGAGSAD
3. FRRGSAVA
4. FKARGASV
5. YRARGSLA

1. no binding
2. no binding
3. binds
4. binds
5. binds
